system: PPARa:RXRa (NR concentration 270 nM, RXRa partner concentration 90 nM); assay: PBM binding z-score (relative to random genomic background probes); higher = stronger binding; sequences stand for … in GC…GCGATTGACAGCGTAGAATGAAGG
Readout: PBM binding z-score
Format: numeric value only, no unit, no commentary.

`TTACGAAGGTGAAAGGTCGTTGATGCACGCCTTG` tested on PPARa:RXRa (NR concentration 270 nM, RXRa partner concentration 90 nM) gave PBM binding z-score: 5.25

`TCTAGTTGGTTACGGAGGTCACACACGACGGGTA` tested on PPARa:RXRa (NR concentration 270 nM, RXRa partner concentration 90 nM) gave PBM binding z-score: 3.67

`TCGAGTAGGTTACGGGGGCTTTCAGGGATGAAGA` tested on PPARa:RXRa (NR concentration 270 nM, RXRa partner concentration 90 nM) gave PBM binding z-score: 3.23

`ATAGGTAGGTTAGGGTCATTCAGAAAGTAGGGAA` tested on PPARa:RXRa (NR concentration 270 nM, RXRa partner concentration 90 nM) gave PBM binding z-score: 5.26

`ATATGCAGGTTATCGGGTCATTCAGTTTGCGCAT` tested on PPARa:RXRa (NR concentration 270 nM, RXRa partner concentration 90 nM) gave PBM binding z-score: 4.13

Others:
`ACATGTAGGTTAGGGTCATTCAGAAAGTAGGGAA` tested on PPARa:RXRa (NR concentration 270 nM, RXRa partner concentration 90 nM) gave PBM binding z-score: 5.48

`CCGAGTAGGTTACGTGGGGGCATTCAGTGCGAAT` tested on PPARa:RXRa (NR concentration 270 nM, RXRa partner concentration 90 nM) gave PBM binding z-score: 3.6

`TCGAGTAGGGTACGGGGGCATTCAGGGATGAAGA` tested on PPARa:RXRa (NR concentration 270 nM, RXRa partner concentration 90 nM) gave PBM binding z-score: 3.09

`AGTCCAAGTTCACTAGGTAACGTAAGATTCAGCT` tested on PPARa:RXRa (NR concentration 270 nM, RXRa partner concentration 90 nM) gave PBM binding z-score: 2.69

`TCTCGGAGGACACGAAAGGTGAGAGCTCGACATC` tested on PPARa:RXRa (NR concentration 270 nM, RXRa partner concentration 90 nM) gave PBM binding z-score: 1.22

`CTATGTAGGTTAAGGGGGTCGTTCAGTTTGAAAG` tested on PPARa:RXRa (NR concentration 270 nM, RXRa partner concentration 90 nM) gave PBM binding z-score: 5.33

`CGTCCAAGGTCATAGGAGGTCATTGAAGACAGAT` tested on PPARa:RXRa (NR concentration 270 nM, RXRa partner concentration 90 nM) gave PBM binding z-score: 5.94

`CAAACTAGGTCACAGAGGTCGAAGTCCGTGCGTA` tested on PPARa:RXRa (NR concentration 270 nM, RXRa partner concentration 90 nM) gave PBM binding z-score: 5.48

`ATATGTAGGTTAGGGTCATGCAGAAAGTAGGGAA` tested on PPARa:RXRa (NR concentration 270 nM, RXRa partner concentration 90 nM) gave PBM binding z-score: 5.74

`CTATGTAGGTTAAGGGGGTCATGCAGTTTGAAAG` tested on PPARa:RXRa (NR concentration 270 nM, RXRa partner concentration 90 nM) gave PBM binding z-score: 6.35

`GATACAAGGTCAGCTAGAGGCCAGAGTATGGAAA` tested on PPARa:RXRa (NR concentration 270 nM, RXRa partner concentration 90 nM) gave PBM binding z-score: 4.53

`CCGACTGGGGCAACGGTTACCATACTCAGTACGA` tested on PPARa:RXRa (NR concentration 270 nM, RXRa partner concentration 90 nM) gave PBM binding z-score: 1.25

`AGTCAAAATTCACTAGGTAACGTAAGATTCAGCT` tested on PPARa:RXRa (NR concentration 270 nM, RXRa partner concentration 90 nM) gave PBM binding z-score: 0.989

`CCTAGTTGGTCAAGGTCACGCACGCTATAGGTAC` tested on PPARa:RXRa (NR concentration 270 nM, RXRa partner concentration 90 nM) gave PBM binding z-score: 4.31

`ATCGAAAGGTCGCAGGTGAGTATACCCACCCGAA` tested on PPARa:RXRa (NR concentration 270 nM, RXRa partner concentration 90 nM) gave PBM binding z-score: 5.01

`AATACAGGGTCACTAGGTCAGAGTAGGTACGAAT` tested on PPARa:RXRa (NR concentration 270 nM, RXRa partner concentration 90 nM) gave PBM binding z-score: 6.03

`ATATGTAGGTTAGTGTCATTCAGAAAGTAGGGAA` tested on PPARa:RXRa (NR concentration 270 nM, RXRa partner concentration 90 nM) gave PBM binding z-score: 3.21

`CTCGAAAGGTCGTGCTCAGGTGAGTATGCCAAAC` tested on PPARa:RXRa (NR concentration 270 nM, RXRa partner concentration 90 nM) gave PBM binding z-score: 4.79

---

test system: PPARg:RXRa 270nM:90nM, anti-RXR (NR concentration 270 nM, RXRa partner concentration 90 nM); assay: PBM binding z-score (relative to random genomic background probes); higher = stronger binding; sequences stand for … in GC…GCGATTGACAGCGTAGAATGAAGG
Lab note: class by PBM binding z-score, see bucket 1: < 5; bucket 2: ≥ 5 and < 6; bucket 3: ≥ 6

Please review the entries below; each comes with its answer.
Q: Where would `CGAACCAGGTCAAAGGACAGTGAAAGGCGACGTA` land among the classes by reported PBM binding z-score?
Ans: bucket 3

Q: Where would `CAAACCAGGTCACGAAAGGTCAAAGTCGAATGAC` land among the classes by reported PBM binding z-score?
Ans: bucket 3

Q: Where would `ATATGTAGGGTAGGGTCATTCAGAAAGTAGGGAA` land among the classes by reported PBM binding z-score?
Ans: bucket 2

Q: Where would `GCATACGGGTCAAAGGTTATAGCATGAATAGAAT` land among the classes by reported PBM binding z-score?
Ans: bucket 3

Q: Where would `AGAATGGGGTTATTAAGATCAGGGAATTGCGGTC` land among the classes by reported PBM binding z-score?
Ans: bucket 1

Q: Where would `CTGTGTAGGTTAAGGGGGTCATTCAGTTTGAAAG` land among the classes by reported PBM binding z-score?
Ans: bucket 3

Q: Where would `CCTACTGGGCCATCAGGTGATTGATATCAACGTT` land among the classes by reported PBM binding z-score?
Ans: bucket 1

Q: Where would `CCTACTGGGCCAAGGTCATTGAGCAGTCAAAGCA` land among the classes by reported PBM binding z-score?
Ans: bucket 1

Others:
Q: Where would `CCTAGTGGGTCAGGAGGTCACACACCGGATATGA` land among the classes by reported PBM binding z-score?
Ans: bucket 3

Q: Where would `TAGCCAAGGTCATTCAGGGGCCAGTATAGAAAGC` land among the classes by reported PBM binding z-score?
Ans: bucket 1

---

test system: PPARg:RXRa 90nM:30nM, anti-RXR (NR concentration 90 nM, RXRa partner concentration 30 nM); assay: PBM binding z-score (relative to random genomic background probes); higher = stronger binding; sequences stand for … in GC…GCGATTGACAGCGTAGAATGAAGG
# if value of PBM binding z-score reaches 4, tag 1 (yes); if it stays below, tag 0 (no)

Q: State whether the measured PBM binding z-score reaches 4, counting equality as reaching it, for `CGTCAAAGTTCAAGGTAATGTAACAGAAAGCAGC`
Ans: 0 (no)

Q: State whether the measured PBM binding z-score reaches 4, counting equality as reaching it, for `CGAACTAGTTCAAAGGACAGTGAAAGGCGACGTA`
Ans: 0 (no)

Q: State whether the measured PBM binding z-score reaches 4, counting equality as reaching it, for `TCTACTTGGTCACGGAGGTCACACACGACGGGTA`
Ans: 0 (no)

Q: State whether the measured PBM binding z-score reaches 4, counting equality as reaching it, for `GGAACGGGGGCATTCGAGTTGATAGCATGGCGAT`
Ans: 0 (no)

Q: State whether the measured PBM binding z-score reaches 4, counting equality as reaching it, for `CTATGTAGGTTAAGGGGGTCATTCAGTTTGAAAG`
Ans: 1 (yes)

Q: State whether the measured PBM binding z-score reaches 4, counting equality as reaching it, for `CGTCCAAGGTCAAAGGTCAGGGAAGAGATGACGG`
Ans: 1 (yes)

Q: State whether the measured PBM binding z-score reaches 4, counting equality as reaching it, for `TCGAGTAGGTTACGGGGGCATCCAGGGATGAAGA`
Ans: 1 (yes)

Q: State whether the measured PBM binding z-score reaches 4, counting equality as reaching it, for `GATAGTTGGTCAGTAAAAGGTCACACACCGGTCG`
Ans: 0 (no)

Q: State whether the measured PBM binding z-score reaches 4, counting equality as reaching it, for `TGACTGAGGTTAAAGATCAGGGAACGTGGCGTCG`
Ans: 0 (no)
